TARGET: hCA II (Homo sapiens, UniProt P00918)
MEASUREMENT DESCRIPTION: stopped-flow CO2 hydrase assay, hCA II
Type: biochemical
CONDITION CONTEXT: 20 mM Hepes pH 7.5, 20 mM NaClO4, mean from 3 assays
MEASURE NAME: Ki

Q: What value of measured Ki is listed for F[P-](F)(F)(F)(F)F [PF6^–, haxafluorophosphate] ?
Ans: > 100 mM
